Experiment: inhibitors of T. brucei MetRS aminoacylation, late-stage follow-up, biochemical, radioactivity, round 1 (AID 743060)
Settings: purified enzyme, radiolabel aminoacylation, scintillation, 2 h; at 1 µM; stronger effect = higher value
The label depends only on inhibition: t if it is at least 60%, f if it is smaller.

Sample answers from the record:
O=C(NCc1nc2ccccc2[nH]1)C1=C[C@@H](c2ccc(Br)cc2)C[C@@H](OCc2ccc(CO)cc2)O1    t
O=C(NCc1nc2ccccc2[nH]1)C1=C[C@H](C2CC2)C[C@H](OCc2ccc(CO)cc2)O1    f
O=C1[C@@H]2Cc3c([nH]c4ccccc34)C(c3cccc([N+](=O)[O-])c3)N2C(=O)CN1CCCO (stereo not given in full)    t

Is inhibition for Oc1c(Cl)cc(Cl)cc1CNc1nc2ccccc2[nH]1 at or above 60%? t

Is inhibition for CC(=O)c1cn(CC(=O)Nc2cccc(C(F)(F)F)c2)c2ccccc12 at or above 60%? f

###

Assay: inhibitors of T. brucei MetRS aminoacylation, late-stage follow-up, biochemical, radioactivity, round 1 (AID 743060)
Details: purified enzyme, radiolabel aminoacylation, scintillation, 2 h; at 1 µM; stronger effect = higher value
For each record, write down the corresponding inhibition.
Give bare numbers, in %.

Below are worked cases with known answers.
COc1ccc(CNC(=O)CSc2nnc3c(n2)[nH]c2ccc(F)cc23)cc1    47.5
O=C1CC(N(CCc2ccccc2)C(=S)Nc2ccccc2)C(=O)N1c1ccc(Br)cc1 (centres undefined)    84.2
COc1ccc(CCN(C(=S)Nc2ccccc2)C2CC(=O)N(c3ccc(Cl)cc3)C2=O)cc1 (centres undefined)    92.7

The following compounds each have a reported value; give each one's inhibition.
1. O=C(NCCc1nc2ccccc2[nH]1)c1ccc(Cl)c([N+](=O)[O-])c1
2. O=C(NNC(=O)c1cc(-c2ccc(Cl)c(Cl)c2)nc2ccccc12)Nc1ccccc1
3. Cc1ccc(C(=O)NCCc2nc3ccccc3[nH]2)cc1[N+](=O)[O-]
4. O=C(NCc1nc2ccccc2[nH]1)C1=C[C@H](c2ccc(Br)cc2)C[C@H](OCCCCO)O1
5. COc1ccccc1-n1c(SCC(=O)Nc2ccc(Cl)cc2)nc(O)c(Cc2ccccc2)c1=O
6. COc1ccccc1NC(=O)CSc1nnc2c(n1)[nH]c1ccc(C)cc12

[89.8, 59.7, 35.7, 51.6, 2.04, 19.1]

###

Assay: inhibitors of T. brucei MetRS aminoacylation, late-stage follow-up, biochemical, radioactivity, round 1 (AID 743060)
Conditions: purified enzyme, radiolabel aminoacylation, scintillation, 2 h; at 1 µM; stronger effect = higher value
PROPERTY: inhibition (%)
Answers are plain numbers, in %.

Here's what some known entries look like.
Cc1cccc(C(=O)NCCc2nc3ccccc3n2CCOc2ccccc2)c1    1.66
COc1cccc(NC(=O)C2CC(=O)n3c(nc4ccccc43)N2)c1 (centres undefined)    5.53
CN(Cc1cc(Cl)cc(Cl)c1)[C@H]1C[C@H]2c3[nH]c4ccccc4c3CCN2C(=O)[C@H]1CO    95.1
O=C(Cn1cc(C(=O)c2ccccc2)c2ccccc21)Nc1cccc(C(F)(F)F)c1    22
O=C(NCc1nc2ccccc2[nH]1)C1=C[C@H](c2ccccc2)C[C@H](OCc2ccc(CO)cc2)O1    7.32

Fill in inhibition for each of the 4 compounds listed.
1. CC(C)OCCCN1CC(=O)N2C(c3cccc([N+](=O)[O-])c3)c3[nH]c4ccccc4c3C[C@H]2C1=O (some centres undefined)
2. O=C(CSC1CC(=O)N(c2cccc(Cl)c2)C1=O)Nc1ccc(Br)cc1 (centres undefined)
3. O=C(CC=NOCc1ccc([N+](=O)[O-])cc1)Nc1ccc(Cl)cc1
4. CCN(CC)C(=O)C(=O)c1cn(CC(=O)Nc2ccccc2OC)c2ccccc12

1: 50; 2: 23.7; 3: 28.6; 4: -7.03

###

Assay: inhibitors of T. brucei MetRS aminoacylation, late-stage follow-up, biochemical, radioactivity, round 1 (AID 743060)
Conditions: purified enzyme, radiolabel aminoacylation, scintillation, 2 h; at 1 µM; stronger effect = higher value
PROPERTY: inhibition (%)
Numbers only, in %.

Worked cases, inhibition given:
O=C(Cn1cc(C(=O)C(=O)N2CCOCC2)c2ccccc21)Nc1cccc(C(F)(F)F)c1    87.5
Brc1cnc2nc(SCc3nc4ccccc4[nH]3)[nH]c2c1    23.7
O=C(Cn1cnc2ccccc21)Nc1cccc([N+](=O)[O-])c1    44.9
COc1cccc(NC(=O)CSc2nnc3c(n2)[nH]c2ccc(C)cc23)c1    97.7
Cc1cccc(NC(=O)C2CC(=O)n3c(nc4ccccc43)N2)c1 (stereo unspecified)    3
O=C(Cn1cc(C(=O)C(=O)N2CCOCC2)c2ccccc21)NCc1ccccc1    -0.16
O=C(C[C@H]1C(=O)N(Cc2ccccc2)C[C@@H]1c1ccc(Br)cc1)Nc1ccc(Br)cc1    55.7
O=C(NCc1nc2ccccc2[nH]1)C1=C[C@H](c2ccc3c(c2)OCO3)C[C@H](OCCCCO)O1    5.68

Report inhibition for every entry below.
1. CCC(=O)c1cn(CC(=O)Nc2cccc(C(F)(F)F)c2)c2ccccc12
2. O=C1CC(NCCc2ccccc2)C(=O)N1c1ccc(Br)cc1 (stereo unspecified)
3. CCN(CC)C(=O)C(=O)c1cn(CC(=O)N(CC)c2ccccc2)c2ccccc12

1: -3.8; 2: -6.51; 3: -3.75

Please report inhibition for every entry that follows.
1. Cc1ccc(CNC(=O)CSc2nnc3c(n2)[nH]c2ccc(C)cc23)cc1
2. O=C(NCCc1nc2ccccc2[nH]1)c1c(F)cccc1F
3. O=C(C(=O)N1CCOCC1)c1cn(CC(=O)N2CCCc3ccccc32)c2ccccc12
4. CCN(C(=O)Cn1cc(C(=O)C(=O)N2CCOCC2)c2ccccc21)c1ccccc1
5. O=C(CSc1nnc2c(n1)[nH]c1ccc(Br)cc12)NCc1ccccc1
6. CCCCn1c(CCNC(=O)c2ccc(F)cc2)nc2ccccc21
7. O=C(NCc1nc2ccccc2[nH]1)C1=C[C@@H](c2ccc3c(c2)OCO3)C[C@@H](OCCCCO)O1
8. CC(CC(=O)Nc1cccc(Br)c1)=NNC(=O)c1ccc(O)cc1O

1: 76.3; 2: 2.62; 3: -6; 4: -19.2; 5: 79.8; 6: 4.87; 7: 50.4; 8: 36.5

For each of the compounds below, note its inhibition.
1. Cc1cccc2[nH]c(C3CCCN(C(=O)c4cccc5cccnc45)C3)nc12 (stereo unspecified)
2. O=C(NCc1nc2ccccc2[nH]1)C1=C[C@@H](C2CC2)C[C@@H](OCc2ccc(CO)cc2)O1

[-3.03, 52.8]

###

Assay: inhibitors of T. brucei MetRS aminoacylation, late-stage follow-up, biochemical, radioactivity, round 1 (AID 743060)
Settings: purified enzyme, radiolabel aminoacylation, scintillation, 2 h; at 1 µM; stronger effect = higher value
// label = Condition met if inhibition is not less than 40%, otherwise Condition not met

CC(=O)N(CCc1ccccc1)C1CC(=O)N(c2ccc(Cl)cc2)C1=O (stereo not given)    Condition not met
CCN(CC)C(=O)C(=O)c1cn(CC(=O)Nc2cccc(OC)c2)c2ccccc12    Condition met
CCO[C@@H]1OC(C(=O)NCc2nc3ccccc3[nH]2)=C[C@H](c2ccc(Br)cc2)[C@H]1CCCO    Condition not met
CN1CC(=O)N2C(c3cccc([N+](=O)[O-])c3)c3[nH]c4ccccc4c3C[C@H]2C1=O (stereo not given in full)    Condition met
COc1ccccc1NC(=O)Cn1cc(C(=O)C(=O)N2CCOCC2)c2ccccc21    Condition not met

Lab note: next compound to report on.
Record CC(C)c1nc2ccc(C(=O)N(C)CCc3nc4ccc(F)cc4[nH]3)cc2o1 ; criterion: inhibition no lower than 40%. Met? Condition not met

###

Assay: inhibitors of T. brucei MetRS aminoacylation, late-stage follow-up, biochemical, radioactivity, round 1 (AID 743060)
Details: purified enzyme, radiolabel aminoacylation, scintillation, 2 h; at 1 µM; stronger effect = higher value
PROPERTY: inhibition (%)
One number for each entry, in %.

CCN(CC)C(=O)C(=O)c1cn(CC(=O)Nc2cccc(C(F)(F)F)c2)c2ccccc12    95.4

Record inhibition for all entries; do not skip any.
1. O=C(CN1CCSC1=NCc1ccccc1)c1ccc(Cl)c(Cl)c1
2. CCN(CC)C(=O)C(=O)c1cn(CC(=O)N2CCCc3ccccc32)c2ccccc12
3. CC(=O)c1ccc(N2CCN(C(=O)CCCn3c(=O)[nH]c4ccc(Br)cc4c3=O)CC2)cc1

-1.95
-9.56
68.1
